Reference for the values: PubChem BioAssay AID1069

PROTOCOL DESCRIPTION: LNCaP granularity increase inducers, single-point recheck – cell-based, side scatter shift, flow cytometry, confirmation (AID 1069);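 note: LNCaP human prostate cancer cells in low-serum medium with charcoal-stripped FBS; percent of cells with raised granularity gated so DMSO controls show 10%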
PARTICULARS: LNCaP differentiation, 4 d, side scatter shift, at 10 µM, stronger effect = higher value
MEASURED ENDPOINT: side scatter shift (%)
Answer in %, number only, no unit symbol.

In the examples that follow, each entry is paired with its recorded side scatter shift.
- Cc1ccc(-n2c(SCC(=O)Nc3nccs3)nc3c(c2=O)SCC3)cc1: 9.7
- Cc1cc(N2CCN(C)CC2)nc2ccc(NC(=O)c3ccc(Br)o3)cc12: 56.4
- CCn1c(=S)ccc2ccc(OC)cc21: 1.95
- COc1ccc(N2CCN(CCCNC(=O)CC3Oc4ccc(C)cc4NC3=O)CC2)cc1 (centres undefined): 9.05
- CCOC(=O)c1cc2c(=O)n3ccccc3nc2n(CCCOC)c1=NC(=O)c1cccnc1: 5.75
- Cn1c(=O)cc(SCC(=O)NCCCN2CCN(c3ccc(F)cc3)CC2)c2ccccc21: 8.35
- Cn1c(C(=O)NCCCN2CCN(c3ccccc3F)CC2)cc2c(=O)n(C)c3ccccc3c21: 7.65
- CCOc1nc(-c2ccccc2O)nc2ccccc12: 8.8
- CCOC(=O)N1CCC(NC(=O)c2cc3c(-c4ccc(Cl)cc4)nn(C)c3s2)CC1: 6.9
- Cc1oc(-c2ccc(Cl)cc2)nc1CN1CCCC(C(=O)N2CCN(C(=O)c3ccco3)CC2)C1 (centres undefined): 3.65

Exam item: Consider the compound Cc1oc(-c2ccc(Cl)cc2)nc1CN1CCC(C(=O)NCCCN2CCCC2=O)CC1 and give its measured side scatter shift.
Marked response: 1.8

Exam item: And for CC1(C)CC(=O)c2cc(OCC(=O)NCCCN3CCN(c4ccccc4F)CC3)ccc2O1 ?
Marked response: 6.5

Exam item: And for CCOC(=O)C1=C(C)N=c2s/c(=C\c3ccncc3)c(=O)n2C1c1ccc2c(c1)OCO2 (centres undefined) ?
Marked response: 6.4

----------
side scatter shift by entry:
PROTOCOL DESCRIPTION: LNCaP granularity increase inducers, single-point recheck – cell-based, side scatter shift, flow cytometry, confirmation (AID 1069)
PARTICULARS: LNCaP differentiation, 4 d, at 100 µM, stronger effect = higher value
Active and inactive are the calls of the source.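 How the source made its calls: active means high combined rank on largest and smallest cell-count-weighted shift across three tests, rank score above 45, floors 50 and 25 (some results past the limit were not filed as active); inactive means the rest.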

Exam item: Consider the compound CN1CCN(CC(=O)Nc2ccc(Cl)cc2Cl)CC1 and give its measured side scatter shift.
Marked response: 23.1% (inactive)

Exam item: And for Cc1oc(-c2cccc(Cl)c2)nc1CN1CCCC(C(=O)NCCCN2CCOCC2)C1 (stereo not drawn) ?
Marked response: 27.3% (inactive)

----------
PROTOCOL DESCRIPTION: LNCaP granularity increase inducers, single-point recheck – cell-based, side scatter shift, flow cytometry, confirmation (AID 1069)
PARTICULARS: LNCaP differentiation, 4 d, at 100 µM, stronger effect = higher value
side scatter shift by entry:
Answer in %, number only, no unit symbol.

- COc1ccc2nc(NC(=O)C(NS(=O)(=O)c3cccs3)C(C)C)sc2c1 (stereo not given): 35.8

Exam item: Consider the compound COc1ccc(S(=O)(=O)Nc2ccc(F)c(Cl)c2)cc1OC and give its measured side scatter shift.
Marked response: 44.4

Exam item: And for O=C(Cc1ccc(-n2cccc2)cc1)NCc1cccs1 ?
Marked response: 28.8

Exam item: And for O=C(Nc1cccc(Cl)c1)N1CCN(Cc2ccccc2)CC1 ?
Marked response: 7.1

Exam item: And for Cc1ccc(S(=O)(=O)NCCCCC(NC(=O)OC(C)(C)C)C(=O)O)cc1 (stereo not given) (tested in a mixture with another compound) ?
Marked response: 8.9

Exam item: And for CCC(CC)C(=O)Nc1cccc(C(=O)NCc2ccco2)c1 ?
Marked response: 14.1

Exam item: And for COc1ccc(-c2noc(CCC(=O)NCCCN3CCC(C)CC3)n2)cc1 ?
Marked response: 23.8

Exam item: And for CCOC(=O)N1CCN(C(=O)CCc2c(C)nc3c(c(C)nn3-c3ccc(C)c(C)c3)c2C)CC1 ?
Marked response: 0

Exam item: And for COc1ccc(Cc2n[nH]c(=O)c3ccccc23)cc1OC ?
Marked response: 5.3

Exam item: And for CCn1c(SCC(=O)Nc2ccccc2F)nc2c(c1=O)SC(C)C2 (stereo not given) ?
Marked response: 8

----------
PROTOCOL DESCRIPTION: LNCaP granularity increase inducers, single-point recheck – cell-based, side scatter shift, flow cytometry, confirmation (AID 1069);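 note: LNCaP human prostate cancer cells in low-serum medium with charcoal-stripped FBS; percent of cells with raised granularity gated so DMSO controls show 10%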
PARTICULARS: LNCaP differentiation, 4 d, at 100 µM
Activity calls are given as the source filed them.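 How the source made its calls: active means high combined rank on largest and smallest cell-count-weighted shift across three tests, rank score above 45, floors 50 and 25 (some results past the limit were not filed as active); inactive means the rest.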
API: response.call in active, inactive

A selection of reference data follows.
- Cc1ccc(OCC(O)Cn2c(=N)n(CCN3CCCCC3)c3ccccc32)cc1 (centres undefined): active
- Cc1ccc2c(c1)c1c(n2CC(O)CNC(CO)(CO)CO)CCCC1 (centres undefined): inactive
- Cc1ccccc1-c1nc(CN2CCC(C(=O)N3CCN(c4ccccn4)CC3)CC2)c(C)o1: inactive
- O=C(c1ccccc1)c1ccc(N2CCNCC2)cc1: active
- COc1ccc(CCn2c(=N)c(C(=O)NCc3ccco3)cc3c(=O)n4ccccc4nc32)cc1: inactive
- Cc1ccc(Nc2cc(=O)n(C3CCCCC3)c(=O)[nH]2)cc1C: inactive
- Cc1ccccc1-c1nc(CN2CCC(C(=O)NCCC3=CCCCC3)CC2)c(C)o1: inactive
- O=C(NC1CCCC1)C1CCN(S(=O)(=O)c2cccc3cccnc23)CC1: inactive
- CCCc1cc(-c2n[nH]c(C)c2-c2ccc(C(=O)OCC)o2)c(O)cc1O: inactive
- CN(CCNC(=O)C1CC(=O)N(c2ccc(F)c(Cl)c2)C1)Cc1ccccc1 (centres undefined): active

Exam item: Name the outcome recorded for CCN1CCN(C(c2cccs2)C(C)NS(=O)(=O)c2ccc(Br)cc2)CC1 (centres undefined) in the assay.
Marked response: inactive

Exam item: And for O=C(CCn1c(=O)[nH]c2ccccc2c1=O)NCCCN1CCN(c2cccc(Cl)c2)CC1 ?
Marked response: inactive

Exam item: And for Cc1oc(-c2ccc(Cl)cc2)nc1CN1CCC(C(=O)NCCCN2CCOCC2)CC1 ?
Marked response: inactive

Exam item: And for CCN(CC)CCNC(=O)c1nn(-c2ccc(C)cc2)c(=O)c2c1c1ccccc1n2C ?
Marked response: inactive

Exam item: And for CCN(CC)CC(=O)Nc1ccc(-c2nc3cc(NC(=O)CN(CC)CC)ccc3o2)cc1 ?
Marked response: active

Exam item: And for Cc1oc(-c2ccc(Cl)cc2)nc1CN1CCCC(C(=O)NCc2ccccn2)C1 (centres undefined) ?
Marked response: inactive

Exam item: And for N=c1n(CCO)c2ccccc2n1CCOc1ccc(Cl)cc1Cl ?
Marked response: inactive

Exam item: And for COc1ccccc1CNC(=O)C1CCN(Cc2nc(-c3cccc(Cl)c3)oc2C)CC1 ?
Marked response: inactive

Exam item: And for COc1ccc(CCNC(=O)C2CCCN(Cc3nc(-c4ccccc4C)oc3C)C2)cc1OC (centres undefined) ?
Marked response: inactive

----------
PROTOCOL DESCRIPTION: LNCaP granularity increase inducers, single-point recheck – cell-based, side scatter shift, flow cytometry, confirmation (AID 1069);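 note: LNCaP human prostate cancer cells in low-serum medium with charcoal-stripped FBS; percent of cells with raised granularity gated so DMSO controls show 10%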
PARTICULARS: LNCaP differentiation, 4 d, at 100 µM
The source made the active and inactive calls.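 The calls were made as follows: active = high combined rank on largest and smallest cell-count-weighted shift across three tests, rank score above 45, floors 50 and 25 (some results past the limit were not filed as active); inactive = the rest.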
API: response.call in active, inactive

• COc1ccc(CCNC(=O)C2CCN(Cc3nc(-c4cccc(Cl)c4)oc3C)CC2)cc1OC = inactive

Exam item: Name the outcome recorded for COc1ccc(OC)c(N=Cc2c(O)[nH]c3ccccc23)c1 in the assay.
Marked response: inactive

Exam item: And for c1ccc(CSc2nnc(-c3cccs3)n2Cc2ccco2)cc1 ?
Marked response: inactive

Exam item: And for c1ccc(OCCCn2nnc(-c3cccnc3)n2)cc1 ?
Marked response: inactive

----------
PROTOCOL DESCRIPTION: LNCaP granularity increase inducers, single-point recheck – cell-based, side scatter shift, flow cytometry, confirmation (AID 1069);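 note: LNCaP human prostate cancer cells in low-serum medium with charcoal-stripped FBS; percent of cells with raised granularity gated so DMSO controls show 10%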
PARTICULARS: LNCaP differentiation, 4 d, at 100 µM, stronger effect = higher value
# binning rule on side scatter shift: LOW = under 10%, MEDIUM = from 10% up to 30%, HIGH = 30% and over

A selection of reference data follows.
* COCCn1cc(C(=O)N2CCCC(C)C2)c2c3ccccc3n(C)c2c1=O (configuration not stated) | MEDIUM
* Oc1ccccc1CNc1nc2ccccc2n1CCN1CCCCC1 | MEDIUM
* Cn1nc(-c2ccc(Cl)cc2)c2cc(C(=O)NCCCN3CCOCC3)sc21 | HIGH
* CC(C)(C)c1ccc(C(O)CCCN2CCC(C(O)(c3ccccc3)c3ccccc3)CC2)cc1 (configuration not stated) | MEDIUM
* CCN(CC)CCCNC(=O)c1cc(-c2ccc(Cl)c(Cl)c2)on1 | MEDIUM
* CCC(C)NC(=O)c1cn(C)c(=O)c2cc(OC)c(OC)cc12 (configuration not stated) | MEDIUM
* CCOC(=O)c1[nH]c(C)c(C(=O)NC2CCCCCC2)c1C | LOW
* C=CCn1c(=N)n(CC(O)COc2ccccc2OC)c2ccccc21 (configuration not stated) | MEDIUM

Exam item: The entry to classify is O=C(C1CCN(S(=O)(=O)c2cccc3nsnc23)CC1)N1CC=C(c2ccccc2)CC1 ; which class holds it?
Marked response: MEDIUM

Exam item: And for Cc1oc(-c2cccc(Cl)c2)nc1CN1CCC(C(=O)NCCCN2CCCC2=O)CC1 ?
Marked response: MEDIUM

Exam item: And for CCN1CCN(CCNC(=O)C2CCN(Cc3nc(-c4ccc(Cl)cc4)oc3C)CC2)CC1 ?
Marked response: HIGH

Exam item: And for CC1(C)CC(=O)c2cc(OCC(=O)NCCCN3CCN(c4ccc(F)cc4)CC3)ccc2O1 ?
Marked response: LOW

Exam item: And for Cc1ccccc1-c1nc(CN2CCCC(C(=O)NCc3cccnc3)C2)c(C)o1 (configuration not stated) ?
Marked response: MEDIUM

Exam item: And for CCN(CC)CCCNc1oc(-c2cccc(Cl)c2)nc1C#N ?
Marked response: MEDIUM

Exam item: And for COc1ccc(OC)c(CNC(=O)CCNC(=O)Cn2ccc3ccccc3c2=O)c1 ?
Marked response: MEDIUM

Exam item: And for CN(C(=O)c1ccccn1)c1nnc(-c2cccnc2)s1 ?
Marked response: LOW
